Procedure Details: protein stability index of a GFP-peptide fusion (yeast GPS) (PSI 1-4); higher = more stable; sorted into four equal gates, so the index is relative within each strain
Measurement Conditions: pdr5∆
// reported protein stability index per item
Lab note: record the figure alone, no unit after it.

[in] Assign protein stability index to the following record: ERNAFLSDYEVLKFLTD [RPC17]
[out] 3.04

[in] Read off the recorded protein stability index for TLSPNVTDSSLLKLLTR [GRR1]
[out] 2.99

[in] State its protein stability index for this sequence: KVESQETLNDTIERSLI [YCS4]
[out] 2.99

# next sequence below
[in] Supply reported protein stability index belonging to this sequence: VTTNINWRSFNAKIIDA [SRP68]
[out] 3
